- EXPERIMENT NOTES: background-corrected fluorescence of 3'-dye-labeled ssDNA relative to brightest sequence (3'-GCGCG) (fraction); higher = brighter dye fluorescence (less quenching)
- CONDITION CONTEXT: dye: Cy3 (3' terminal)
Would you mind labelling by background-corrected fluorescence? At or over 0.5 is fulfilled, under is not fulfilled.

Solved cases below.
For this sequence, is measured background-corrected fluorescence 0.5 or higher? TTTTTGCAGCAGCATGATCATTTTTTTTTTTTTTTTTTCG [GCTTT]
not fulfilled

For this sequence, is measured background-corrected fluorescence 0.5 or higher? TTTTTTCAGCATCATGATGCTTTTTTTTTTTTTTTGTGCA [ACGTG]
fulfilled

For this sequence, is measured background-corrected fluorescence 0.5 or higher? TTTTTTGATCATGATGATCATTTTTTTTTTTTTTTCGCCG [GCCGC]
fulfilled

Next:
For this sequence, is measured background-corrected fluorescence 0.5 or higher? TTTTTGCATGATCATGATGCTTTTTTTTTTTTTTTTCGCA [ACGCT]
fulfilled

For this sequence, is measured background-corrected fluorescence 0.5 or higher? TTTTTTGCTGAGCATGATGCTTTTTTTTTTTTTTTACTCA
not fulfilled

For this sequence, is measured background-corrected fluorescence 0.5 or higher? TTTTTTGCTGCGCATGATGATTTTTTTTTTTTTTTAATCC [CCTAA]
not fulfilled

For this sequence, is measured background-corrected fluorescence 0.5 or higher? TTTTTTCATGCTCAGCATGCTTTTTTTTTTTTTTTGAGTA [ATGAG]
fulfilled

###

Task for the reader: assign each of the following sequences its reported background-corrected fluorescence.
- EXPERIMENT NOTES: background-corrected fluorescence of 3'-dye-labeled ssDNA relative to brightest sequence (3'-GCGCG) (fraction); higher = brighter dye fluorescence (less quenching)
- CONDITION CONTEXT: dye: Cy5 (3' terminal)
Give bare numbers.

In the examples that follow, each entry is paired with its recorded background-corrected fluorescence.
Look up background-corrected fluorescence for this sequence: TTTTTTGCTGATGATCATGATTTTTTTTTTTTTTTACCGC [CGCCA]
0.406

Look up background-corrected fluorescence for this sequence: TTTTTTGCTGCTGCTCATGCTTTTTTTTTTTTTTTAAAGA [AGAAA]
0.568

Look up background-corrected fluorescence for this sequence: TTTTTTGATCATGATGCGCATTTTTTTTTTTTTTTCGCAT [TACGC]
0.395

For every item in the list below, what is its measured background-corrected fluorescence?
1. TTTTTTCATCAGCAGCATCATTTTTTTTTTTTTTTGGTTG [GTTGG]
2. TTTTTTCATGCTGCTGATGCTTTTTTTTTTTTTTTGAACA [ACAAG]
3. TTTTTTCAGCATCATCATGCTTTTTTTTTTTTTTTGTGGA [AGGTG]

1: 0.392; 2: 0.394; 3: 0.606

For every item in the list below, what is its measured background-corrected fluorescence?
1. TTTTTGCATGATGCTGAGCATTTTTTTTTTTTTTTTCACT
2. TTTTTTGCTGATGATGCTCATTTTTTTTTTTTTTTACCAG [GACCA]
3. TTTTTTGAGCATGATGATGATTTTTTTTTTTTTTTCTCCC [CCCTC]
4. TTTTTGCATGAGCATCATGCTTTTTTTTTTTTTTTTCTGA [AGTCT]
5. TTTTTTGATCATGCTCATCATTTTTTTTTTTTTTTCGAGG [GGAGC]

0.334
0.378
0.269
0.56
0.534

For every item in the list below, what is its measured background-corrected fluorescence?
1. TTTTTTGCTCATCATCATGATTTTTTTTTTTTTTTAGGGC [CGGGA]
2. TTTTTTCATGCTGATCATGCTTTTTTTTTTTTTTTGACGA [AGCAG]
3. TTTTTTGATCATGATCATCATTTTTTTTTTTTTTTCGCGG [GGCGC]

0.478
0.52
0.793

For every item in the list below, what is its measured background-corrected fluorescence?
1. TTTTTGCATCATCATCATGCTTTTTTTTTTTTTTTTGGGA [AGGGT]
2. TTTTTTGATGCTGATGCTGCTTTTTTTTTTTTTTTCACAA [AACAC]
3. TTTTTTCATCATCATCATCATTTTTTTTTTTTTTTGGGGG
4. TTTTTTGATGATGCTCAGCATTTTTTTTTTTTTTTCCAGT [TGACC]
5. TTTTTGCATGCGCATGCTGATTTTTTTTTTTTTTTTATAC [CATAT]
6. TTTTTTGCTGAGCAGCATGCTTTTTTTTTTTTTTTACTTA [ATTCA]
7. TTTTTTGCTCATGCTCATGCTTTTTTTTTTTTTTTAGAGA

[0.725, 0.411, 0.635, 0.458, 0.333, 0.379, 0.519]

###

- EXPERIMENT NOTES: background-corrected fluorescence of 3'-dye-labeled ssDNA relative to brightest sequence (3'-GCGCG) (fraction); higher = brighter dye fluorescence (less quenching)
- CONDITION CONTEXT: dye: Cy3 (3' terminal)
MEASURE: background-corrected fluorescence
One number for each entry.

Look up background-corrected fluorescence for this sequence: TTTTTTGCTCATCAGCAGCATTTTTTTTTTTTTTTAGGTT [TTGGA]
0.584

For every item in the list below, what is its measured background-corrected fluorescence?
1. TTTTTTGCTGATGATGCTCATTTTTTTTTTTTTTTACCAG [GACCA]
2. TTTTTGCATGCTCATCATGATTTTTTTTTTTTTTTTAGGC [CGGAT]
3. TTTTTTGCGCAGCAGCATCATTTTTTTTTTTTTTTATTTG [GTTTA]
4. TTTTTGCATCATCATGATGCTTTTTTTTTTTTTTTTGGCA [ACGGT]

0.516
0.617
0.5
0.562

###

- EXPERIMENT NOTES: background-corrected fluorescence of 3'-dye-labeled ssDNA relative to brightest sequence (3'-GCGCG) (fraction); higher = brighter dye fluorescence (less quenching)
- CONDITION CONTEXT: dye: Cy3 (3' terminal)
Assign a class from recorded background-corrected fluorescence; defined classes: lower: < 0.5; middle: ≥ 0.5 and < 0.6; upper: ≥ 0.6

Solved cases below.
Class for TTTTTGCATGCTGATCATGATTTTTTTTTTTTTTTTACGC [CGCAT] ?
middle

Class for TTTTTGCATCATCAGCATGATTTTTTTTTTTTTTTTGGTC [CTGGT] ?
lower

Class for TTTTTGCAGCATGATGCTGCTTTTTTTTTTTTTTTTTCAA [AACTT] ?
middle

Class for TTTTTTGATCATGAGCATCATTTTTTTTTTTTTTTCGCTG [GTCGC] ?
middle

Class for TTTTTTGCTGCTCATGCGCATTTTTTTTTTTTTTTAAGAT [TAGAA] ?
middle

Class for TTTTTTGATGCTGCGCATCATTTTTTTTTTTTTTTCAATG [GTAAC] ?
middle

Class for TTTTTTGCGCATCATCATGATTTTTTTTTTTTTTTATGGC [CGGTA] ?
middle

Class for TTTTTTCAGCATGATGCTCATTTTTTTTTTTTTTTGTCAG [GACTG] ?
middle

Next:
Class for TTTTTTCATGCTCATCATGCTTTTTTTTTTTTTTTGAGGA [AGGAG] ?
upper

Class for TTTTTTCATCATGCTCATCATTTTTTTTTTTTTTTGGAGG ?
upper

Class for TTTTTTCAGCATGCTGATGATTTTTTTTTTTTTTTGTACC [CCATG] ?
lower

###

- EXPERIMENT NOTES: background-corrected fluorescence of 3'-dye-labeled ssDNA relative to brightest sequence (3'-GCGCG) (fraction); higher = brighter dye fluorescence (less quenching)
- CONDITION CONTEXT: dye: Cy5 (3' terminal)
Task for the reader: assign each of the following sequences its reported background-corrected fluorescence.
Answers are plain numbers.

Look up background-corrected fluorescence for this sequence: TTTTTTGCTCAGCATGATGCTTTTTTTTTTTTTTTAGTCA [ACTGA]
0.407

For every item in the list below, what is its measured background-corrected fluorescence?
1. TTTTTGCATCATGCGCATCATTTTTTTTTTTTTTTTGATG [GTAGT]
2. TTTTTTGATGATCATGAGCATTTTTTTTTTTTTTTCCGCT [TCGCC]
3. TTTTTTCATCATCAGCATGCTTTTTTTTTTTTTTTGGGTA [ATGGG]
4. TTTTTGCATCATCATGATGATTTTTTTTTTTTTTTTGGCC [CCGGT]
5. TTTTTTGCTGATCATGATGCTTTTTTTTTTTTTTTACGCA
6. TTTTTTCATCAGCAGCATGCTTTTTTTTTTTTTTTGGTTA [ATTGG]
7. TTTTTGCATGCTGATCATCATTTTTTTTTTTTTTTTACGG [GGCAT]

1: 0.409; 2: 0.428; 3: 0.517; 4: 0.369; 5: 0.445; 6: 0.446; 7: 0.514
